# maps each entry to its EC50 (nM), plaque reduction, hPIV3 C243, LLC-MK2 cells
Substrate: F protein of hPIV Type 3 (hPIV3 C243) (human parainfluenza virus type 3, strain C243)
assay_explanation: cell-based or functional assay
Write the answer as a number in nM, unit excluded.

Please review the entries below; each comes with its answer.
binder	result_units	assay_result
DEFDKKIEEVNKKIEESLKKIEESDKKLEAAAKK (modifications not checked) [Compound 17]	nM	52.6
WDEFDKKIEEVNKKIEESLKKIEESDKKLEAAAKK (modifications not checked) [Compound 13]	nM	35.6

# evaluate next
// query Using the record for FDASIEEVNRRIEESLRRIEESDRRLEEVNAEAAAKK (modifications not checked) [Compound 42] , report its EC50 (nM), plaque reduction, hPIV3 C243, LLC-MK2 cells.
// result 18.9
